Attribution: ChEMBL document CHEMBL5584260

Here the recorded viability at 24 h, 50 µM is given for each entry.
# TEST_METHOD_NOTES: Cytotoxicity against human THP-1 cells assessed as cell survival at 50 uM incubated for 24 hrs by MTT assay (reference value: 100.0 +/- 5.24 %)
# Assay type: toxicity, cell-based
# ASSAY_CONTEXT: THP-1 cells, read-out: Activity
Quick reminder: number only, in %, skip the unit.

Known viability at 24 h, 50 µM results, listed for orientation:
CN[C@H](CC(C)C)C(=O)N[C@H]1C(=O)N[C@@H](CC(N)=O)C(=O)N[C@H]2C(=O)N[C@H]3C(=O)N[C@H](C(=O)N[C@H](C(=O)O)c4cc(O)cc(O)c4-c4cc3ccc4O)[C@H](O)c3ccc(c(Cl)c3)Oc3cc2cc(c3O[C@@H]2O[C@H](CO)[C@@H](O)[C@H](O)[C@H]2O[C@H]2C[C@](C)(N)[C@H](O)[C@H](C)O2)Oc2ccc(cc2Cl)[C@H]1O
66.1
Cc1ccc(-n2c(-c3cc4ccccc4oc3=O)nc3ccccc32)cc1
94.1

Tell me its viability at 24 h, 50 µM given `CCCCn1c(-c2cc3ccccc3oc2=O)nc2ccccc21` as the entry. 89.7
